Here the recorded MIC is given for each entry.
Tested on: Staphylococcus aureus
Assay: Antibacterial activity against macrolide-lincosamide-streptogramin B-negative, beta-lactamase-positive, methicillin-susceptible Staphylococcus aureus isolate 4
Type: functional

| mol_smiles | unit_spec | MIC |
| --- | --- | --- |
| CC[C@H]1OC(=O)[C@H](C)[C@@H](O[C@H]2C[C@@](C)(OC)[C@@H](O)[C@H](C)O2)[C@H](C)[C@@H](O[C@@H]2O[C@H](C)C[C@H](N(C)C)[C@H]2O)[C@](C)(O)C[C@@H](C)C(=O)[C@H](C)[C@@H](O)[C@]1(C)O | µg/mL | 0.4 |
| CC1(C)S[C@@H]2[C@H](NC(=O)[C@H](N)c3ccc(O)cc3)C(=O)N2[C@H]1C(=O)O | µg/mL | 1.6 |
| CN(C)[C@@H]1C(O)=C(C(N)=O)C(=O)[C@@]2(O)C(O)=C3C(=O)c4c(O)cccc4[C@@](C)(O)[C@H]3C[C@@H]12 | µg/mL | 1.25 |
| NCC[C@H](O)C(=O)N[C@@H]1C[C@H](N)[C@@H](O[C@H]2O[C@H](CN)[C@@H](O)[C@H](O)[C@H]2O)[C@H](O)[C@H]1O[C@H]1O[C@H](CO)[C@@H](O)[C@H](N)[C@H]1O | µg/mL | 3.2 |

* * *

Here the recorded MIC is given for each entry.
System: Staphylococcus aureus
Assay: Antibacterial activity against macrolide-lincosamide-streptogramin B-negative, beta-lactamase-positive, methicillin-susceptible Staphylococcus aureus isolate 3
Type: functional
metric: MIC (µg/mL)

| mol_smiles | measured_target | metric | obs_value |
| --- | --- | --- | --- |
| NCC[C@H](O)C(=O)N[C@@H]1C[C@H](N)[C@@H](O[C@H]2O[C@H](CN)[C@@H](O)[C@H](O)[C@H]2O)[C@H](O)[C@H]1O[C@H]1O[C@H](CO)[C@@H](O)[C@H](N)[C@H]1O | Staphylococcus aureus | MIC | 1.6 |
| CC1(C)S[C@@H]2[C@H](NC(=O)[C@H](N)c3ccc(O)cc3)C(=O)N2[C@H]1C(=O)O | Staphylococcus aureus | MIC | 0.2 |
| CN(C)[C@@H]1C(O)=C(C(N)=O)C(=O)[C@@]2(O)C(O)=C3C(=O)c4c(O)cccc4[C@@](C)(O)[C@H]3C[C@@H]12 | Staphylococcus aureus | MIC | 1.25 |
| CC[C@H]1OC(=O)[C@H](C)[C@@H](O[C@H]2C[C@@](C)(OC)[C@@H](O)[C@H](C)O2)[C@H](C)[C@@H](O[C@@H]2O[C@H](C)C[C@H](N(C)C)[C@H]2O)[C@](C)(O)C[C@@H](C)C(=O)[C@H](C)[C@@H](O)[C@]1(C)O | Staphylococcus aureus | MIC | 0.2 |
